test system: HIV; assay: Inhibition of HIV replication in HIV infected human T-lymphoma cells or human fetal lung cells; amount of virus determined by new infection of human fetal lung cells; assay type: cell-based; conditions: Human immunodeficiency virus 1, readout: new infection of human fetal lung cells, read-out: IC50-value (concentration which results in an inhibition of the replication of 50%)
Measured IC50, listed per entry.
API: value field is a number in µg/mL; no unit string.

| compound | IC50 (µg/mL) |
| --- | --- |
| CCCCCCCCCCCCS(=O)(=O)CC(COP(=O)([O-])OCC[N+](C)(C)C)OCCCCCCCCCC (stereo not shown) [Example 8] | 2 |
| CCCCCCCCCCCSCC(COP(=O)([O-])OCC[N+](C)(C)C)OCCCCCCCCCC (stereo not shown) [Example 11] | 20 |
| CCCCCCCCCCCCCCSCC(COP(=O)([O-])OCC[N+](C)(C)C)OCCCCCCCCCC (stereo not shown) [Example 13] | 4 |

Moving on to another compound below.
Given item CCCCCCCCCCCCCCCCSCC(COP(=O)([O-])OCC[N+](C)(C)C)OCCCCCCCCCC (stereo not shown) [Example 5] , the value recorded as its IC50 is 20
